The sequences listed here are annotated with their shrunken log2 fold change.
Test system: Escherichia coli TOP10;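 further: peptides expressed intracellularly from a pBAD plasmid library in pooled LB shake-flask culture, induced with 0.3% L-arabinose, DNA abundance read by NGS, three biological replicates, DESeq2 with apeglm shrinkage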
Experiment: shrunken log2 fold change of peptide-encoding DNA abundance (4.5 h post-induction vs induction); higher = less antimicrobial activity (less host growth inhibition)
Settings: time post-induction: 4.5 h; library: site-saturation at positions 5, 18, 19, 20
readout-name: shrunken log2 fold change

>  <seq-text>
RRIRDRPPRLPRPRPRPVIHPRP

>  <readout-name>
shrunken log2 fold change

>  <experimental-result>
0.0491

$$$$
>  <seq-text>
RRIRKRPPRLPRPRPRPHWNPRP

>  <readout-name>
shrunken log2 fold change

>  <experimental-result>
-0.296

$$$$
>  <seq-text>
RRIRIRPPRLPRPRPRPQGCPRP

>  <readout-name>
shrunken log2 fold change

>  <experimental-result>
-0.00156

$$$$
>  <seq-text>
RRIRTRPPRLPRPRPRPRATPRP

>  <readout-name>
shrunken log2 fold change

>  <experimental-result>
0.299

$$$$
>  <seq-text>
RRIRWRPPRLPRPRPRPSELPRP

>  <readout-name>
shrunken log2 fold change

>  <experimental-result>
0.0129

$$$$
>  <seq-text>
RRIRERPPRLPRPRPRPISNPRP

>  <readout-name>
shrunken log2 fold change

>  <experimental-result>
-0.25

$$$$
>  <seq-text>
RRIRGRPPRLPRPRPRPYQHPRP

>  <readout-name>
shrunken log2 fold change

>  <experimental-result>
-0.376

$$$$
>  <seq-text>
RRIRQRPPRLPRPRPRPHMKPRP

>  <readout-name>
shrunken log2 fold change

>  <experimental-result>
-0.0294

$$$$
>  <seq-text>
RRIRPRPPRLPRPRPRPDYFPRP

>  <readout-name>
shrunken log2 fold change

>  <experimental-result>
-0.503

$$$$
>  <seq-text>
RRIRCRPPRLPRPRPRPCLRPRP

>  <readout-name>
shrunken log2 fold change

>  <experimental-result>
-0.229

$$$$
>  <seq-text>
RRIRIRPPRLPRPRPRPWETPRP

>  <readout-name>
shrunken log2 fold change

>  <experimental-result>
-0.0306

$$$$
>  <seq-text>
RRIRARPPRLPRPRPRPKTIPRP

>  <readout-name>
shrunken log2 fold change

>  <experimental-result>
0.038

$$$$
>  <seq-text>
RRIRPRPPRLPRPRPRPNRNPRP

>  <readout-name>
shrunken log2 fold change

>  <experimental-result>
-0.352

$$$$
>  <seq-text>
RRIRQRPPRLPRPRPRPHGAPRP

>  <readout-name>
shrunken log2 fold change

>  <experimental-result>
0.0316

$$$$
>  <seq-text>
RRIRWRPPRLPRPRPRPNKHPRP

>  <readout-name>
shrunken log2 fold change

>  <experimental-result>
-0.281

$$$$
>  <seq-text>
RRIRMRPPRLPRPRPRPCQHPRP

>  <readout-name>
shrunken log2 fold change

>  <experimental-result>
-0.188

$$$$
>  <seq-text>
RRIRFRPPRLPRPRPRPHWEPRP

>  <readout-name>
shrunken log2 fold change

>  <experimental-result>
-0.0104

$$$$
>  <seq-text>
RRIRPRPPRLPRPRPRPSAMPRP

>  <readout-name>
shrunken log2 fold change

>  <experimental-result>
0.0584

$$$$
>  <seq-text>
RRIRPRPPRLPRPRPRPLQDPRP

>  <readout-name>
shrunken log2 fold change

>  <experimental-result>
0.151

$$$$
>  <seq-text>
RRIRNRPPRLPRPRPRPIAWPRP

>  <readout-name>
shrunken log2 fold change

>  <experimental-result>
0.228

$$$$
>  <seq-text>
RRIRPRPPRLPRPRPRPVWLPRP

>  <readout-name>
shrunken log2 fold change

>  <experimental-result>
0.577

$$$$
>  <seq-text>
RRIRVRPPRLPRPRPRPCDSPRP

>  <readout-name>
shrunken log2 fold change

>  <experimental-result>
-0.0445

$$$$
>  <seq-text>
RRIRTRPPRLPRPRPRPSVSPRP

>  <readout-name>
shrunken log2 fold change

>  <experimental-result>
-0.386

$$$$
>  <seq-text>
RRIRTRPPRLPRPRPRPPCNPRP

>  <readout-name>
shrunken log2 fold change

>  <experimental-result>
-0.0091

$$$$
>  <seq-text>
RRIRWRPPRLPRPRPRPMQHPRP

>  <readout-name>
shrunken log2 fold change

>  <experimental-result>
0.596

$$$$
>  <seq-text>
RRIRHRPPRLPRPRPRPKQEPRP

>  <readout-name>
shrunken log2 fold change

>  <experimental-result>
0.0169

$$$$
>  <seq-text>
RRIRPRPPRLPRPRPRPGPGPRP

>  <readout-name>
shrunken log2 fold change

>  <experimental-result>
0.621

$$$$
>  <seq-text>
RRIRMRPPRLPRPRPRPEAFPRP

>  <readout-name>
shrunken log2 fold change

>  <experimental-result>
2.91

$$$$
>  <seq-text>
RRIRERPPRLPRPRPRPVVYPRP

>  <readout-name>
shrunken log2 fold change

>  <experimental-result>
-0.945

$$$$
>  <seq-text>
RRIRARPPRLPRPRPRPTGSPRP

>  <readout-name>
shrunken log2 fold change

>  <experimental-result>
0.841

$$$$
>  <seq-text>
RRIRHRPPRLPRPRPRPAMSPRP

>  <readout-name>
shrunken log2 fold change

>  <experimental-result>
0.0912

$$$$
>  <seq-text>
RRIRKRPPRLPRPRPRPAERPRP

>  <readout-name>
shrunken log2 fold change

>  <experimental-result>
0.123

$$$$
